Field: protein stability index. Provide a value for each of the sequences that follow.
test: protein stability index of a GFP-peptide fusion (GPS, HEK-293T) (PSI 1-6); higher = more stable; details: treatment: MLN4924 1 uM, 8 h; c terminus: a fixed tail appended;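 note: 24-mer peptide tiles fused after GFP, lentivirally expressed, FACS-sorted into six equal bins by GFP/DsRed ratio, decoded by Illumina sequencing, PSI is the read-weighted mean bin number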
Just the number, please, no unit after it.

Quick one: protein stability index for CPVEYNNDTNSFTVDCEPSDLFRL [CDS2] ? 4.03

Which protein stability index value is on record for GEDTRLSASEMKQLIDNILEESDI [CIB1] ? 5.26

Given the sequence PEAVDEDRSTEPDRLQVFHKRAIM [ATE1] , what is its reported protein stability index? 4.91

Report protein stability index for MTQVITRTQEEKLEHVRALIKKYS [TRIM55] please. 2.94

# input sequence: TRRAQADLAYQLQVAKTKQQIEEQ [FLOT1] ; wanted: its protein stability index 4.8

Could you share which protein stability index value was measured for MHPINVRRDPSIPIYGLRQSILLN [C22orf31] ? 2.63

# query: protein stability index of entry LTFHGLILRSQLVTLLVRGVCYSE [CLCN6] 3.03

----------
assay: protein stability index of a GFP-peptide fusion (GPS, HEK-293T) (PSI 1-6); higher = more stable; settings: treatment: MLN4924 1 uM, 8 h; c terminus: a fixed tail appended
observable: protein stability index
Give the value as a plain number.

# input sequence: CQILELLNAELEEKMMQEAEKLKA [CCDC89] ; wanted: its protein stability index 3.65

What protein stability index value was documented for this sequence, NKRVGMYLEGFDPFNQSTFNNVVE [DLC1] ? 3.23

For the sequence EAARNGKMKFVIGNGKNLVDFTFV [NSDHL] , what protein stability index is on record? 2.04

Please give the measured protein stability index for this sequence: GGFAKCYEMTDLTNNKVYAAKIIP [PLK2] 2.81

Which protein stability index value is on record for REEEEKTPPETKPDPPVNFLRQKV [PCMTD2] ? 5.29

Entry under review: TNFEGPPRLKEDQPWMVIEGIRQT [FSD1] . Reported protein stability index? 3.75

Request the reported protein stability index associated with SKDCKPPVYLLLELEDKDGLQSAQ [MYBL2] 3.87

Given the entry SYDELCFLEQRPQSPTLEFLLRNS [EDARADD] , report its measured protein stability index. 3

For DNHNLIERRRRFNINDRIKELGTL [TFE3] , what is its reported protein stability index? 3.69

Name the reported protein stability index value associated with the sequence STKMDCVWSNWKSQAIDLLYWRDI [RTN1] 2.27

Name the recorded protein stability index for RDCGEEMQNGAGASRTSTIFLNGN [TNXB] . 4.34

Can you share its protein stability index? I mean this sequence: NLSSRWKNWWVRGILTLAMIAFFF [CDS2] 4.04

Requested field: protein stability index. Item: IKEIDEHAPGVPKILVGNRLHLAF [RAB40B] 2.19

So what does the record say about protein stability index for KLVKKHAAQRSTETALYRKMLGNP [FKBP8] ? 3.04

Field request: protein stability index | item: ITLLILAELLIFSVPIVYEKYKTQ [RTN3] 3.4

Would you mind telling me what protein stability index value was observed for ERMWAAIQSWDINSRRNINYRSFE [ZER1] ? 2.26

Find the recorded protein stability index belonging to WCGISTDMWRSENQNRAYVTLAAH [ZBED1] and report it. 2.07

For the sequence shown here, MGTRDDEYDYLFKVVLIGDSGVGK [RAB11A] , give the reported protein stability index. 2.44

Could you tell me which protein stability index is on file for VAAAAAATTAATAAATTTTTTSAA [SNAP91] ? 5.34

What measured protein stability index goes with GRVLRKLPFLAHALYVQAPTVTIE [TRIP13] ? 2.05

Request the reported protein stability index associated with MGDEEKRNRAITARRQHLKSVMLQ [TNNI2] 4.12

Need protein stability index, item FIIEYYNIRPADSRWVRDPRYRED [FBXO34] 2.26

Which value of protein stability index has been reported for ARRYAGPLHHQTQRFRLDNLLNMA [ELAVL3] in the records? 2.75

Can you look up the measured protein stability index of PGACPALGTKSCSSSCAVHDLIFW [RTN3] for me? 2.29

Would you kindly share the measured protein stability index for GDDAPKEEVDTGAVNLIESGACGA [INTS4] ? 5.36

Data request, read-out protein stability index, for EQHDLVYGDWTSGENSDGCYEHFA [CLPTM1] 4.41

// protein stability index lookup, key: KGNTTLQQLDLRWNNVGLLGGRAL [LRRC45] 2.73

Recorded protein stability index for APLSNGLCCAFSTDGSVLAAGTHD [WSB1] , please? 3.9

Need protein stability index, item AQFHCAYQLADWCLHHICTNYNNV [RHOBTB2] 3.15

// lookup protein stability index for YGRSDVVVLCFSIANPNSLHHVKT [RHOBTB2] 2.69

Item under review: LEFRKSMYEEEINETRRKHETRLV [LMNB1] . Reported protein stability index? 4.06

What value of protein stability index has been reported for the following sequence? LELLLDASALTLVLGGRRLRRAWF [SCNN1D] 2.4

I'd like to know its protein stability index. The sequence in question is AGALAQGGGPSATEWACILRRKTP [C6orf223] 3.75

protein stability index lookup needed for ALSLIRFPLMTIEEFAAGPAQSGI [BTBD1] , thanks. 2.04

Quick one: protein stability index of DNVPDPKDVKERFSGSLVAALSAT [TMEM175] ? 4.44

Need protein stability index of RDGEPEPMQKLQDLVNRTPWKKCC [RBBP5] , thanks. 4.04

# lookup: protein stability index of TKKHIPYREHKSLTGTARYMSINT [CSNK1G1] 2.65

So what's the measured protein stability index for this one? DTVEIREVHERNDGIDPFPLLMNR [EFHC1] 4.42

Please look up its protein stability index: VINQADVRNNRSIIKQLKDVFERD [PLD5] 3.29

protein stability index lookup needed for AMAAAEGSSGPAGLTLGRSFSNYR [SEPHS2] , thanks. 3.63

Could you tell me which protein stability index is on file for IVTWFMLLYAQGLLAIQFLEFFYG [SLC19A2] ? 3.18

Recorded protein stability index of LFFPVIYDVKYLMKSCKNLKGGLQ [CNOT7] , please. 2.5

Consider the sequence KKINTEGDVPPSMSGSCAVCVDRV [KLHDC2] and give its measured protein stability index. 4.29

Fill blank: measured protein stability index of the sequence GPDTQDLEGQSPPQSLPSTPKAAW [PBXIP1] is ____. 5.07

Please look up its protein stability index: YSDGADDTFAAYTREQLYQAIFHA [MCOLN1] 2.52

Data request, read-out protein stability index, for QGQPDPAPRPGPPAGTPPPTARHF [MOSPD3] 3.65

Item under review: IIIYLGPMVLMIIVMCVQIKCFHE [CDS2] . Reported protein stability index? 3.19

Request the reported protein stability index associated with AVHSGTPVTNNLLEKCKTLVSQSN [SPACA9] 3.78

Could you tell me which protein stability index is on file for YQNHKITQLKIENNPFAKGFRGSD [TBX5] ? 3.55

State the recorded protein stability index for this entry: QLQALNRRFQQTQYLALPERAELA [DLX1] 3.23

Returns the measured protein stability index for the input sequence. Input: AARNACRAGTEPSDAIRVVNAVLT [TRIP13] 3.19

Which protein stability index is reported for this sequence? LWTSFIQSVSYSKLLSVIVWMLML [P2RY14] 3.4

Would you mind telling me what protein stability index value was observed for EKINKIKWLPQQNAAHSLLSTNDK [PPP2R2C] ? 4.15

----------
Hi there, I'd appreciate the recorded protein stability index for every entry that follows.
experiment: protein stability index of a GFP-peptide fusion (GPS, HEK-293T) (PSI 1-6); higher = more stable; conditions: treatment: DMSO; c terminus: a fixed tail appended
Lab note: jot down the number only; don't add units.

What value of protein stability index has been reported for the following sequence? FEVPYYNRGLILYRLGYFDDALED [TTC32] 2.5

Which value of protein stability index has been reported for LPSWADICTNLCEALQNFFSLACS [M1AP] in the records? 2.89

For EKLNIPWNHIRLQRTAKGKPVLAK [AASDHPPT] , what is its reported protein stability index? 3.16

What value of protein stability index has been reported for the following sequence? LGLGTRESHSCPQQVPMPPGQEAQ [NEK8] 4.98

Record request: protein stability index value, item MATPPFRLIRKMFSFKVSRWMGLA [CCDC70] 2.51

Can you look up the measured protein stability index of IIIYLGPMVLMIIVMCVQIKCFHE [CDS2] for me? 3.13

Item LVQDQDLEAIRKQDLVELYLTNCE [ZER1] has what recorded protein stability index? 3.61

Requested field: protein stability index. Item: VLEEQLVKAKEQIENYKKQTRNGL [FUT8] 3.77

Fill in the blank: the reported protein stability index of RRSNSPDKFKRPTPPPSPNTQTPV [CCDC6] is ____. 5.27

Which protein stability index is listed for KAMNMRYSDRTNIISKPVPQTLIM [FEM1C] ? 2.09

Endpoint output: protein stability index of SRPNGTSAMLLVTLGKVLKVIVVM [MED27] . Value? 2.88

If you can, please state the reported protein stability index value of TIHGLIYNALKLFMEMNQKLFDDC [PPP2R5C] . 2.93

Query (sequence): VAVCPIPAAGLDVTQPCGDCGTIQ [HDAC6] ; field requested: protein stability index 3.46
